Numbers sourced from patent US20260327314.

Molecular target: Human CD16A 158V (human)
Sequence (chain, as listed by the source): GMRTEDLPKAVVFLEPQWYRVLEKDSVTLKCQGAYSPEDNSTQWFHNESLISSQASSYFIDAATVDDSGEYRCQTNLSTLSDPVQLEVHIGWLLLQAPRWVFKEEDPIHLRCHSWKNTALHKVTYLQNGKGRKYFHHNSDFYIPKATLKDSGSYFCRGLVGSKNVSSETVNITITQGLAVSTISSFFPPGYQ
Assay: ELISA
# pEC50 listing for each entry below
Quick note: pEC50 means taking -log10 of the concentration in moles per liter.

CD16-VH-RM76 (antibody) EVQLVESGGGLVQPGGSLRLSCAASGFTFSNYGMSWVRQAPGKGLEWIGSIYYSGETNYNPSLKSLVTISRDNSKNTLYLQMNSLRAEDTATYYCARESIDYWGQGTLVTVSS :: 8.57
CD16-VH-RM81 (antibody) EVQLVESGGGLVQPGGSLRLSCAASGFTFSNYGMSWVRQAPGKGLEWIGSIYYTGSTNYNPSLKSLVTISRDNSKNTLYLQMNSLRAEDTATYYCARESIDYWGQGTLVTVSS :: 8.75
CD16-VH-RM82 (antibody) EVQLVESGGGLVQPGGSLRLSCAASGFTFSNYGMSWVRQAPGKGLEWIGSIYYSVSTNYNPSLKSLVTISRDNSKNTLYLQMNSLRAEDTATYYCARESIDYWGQGTLVTVSS :: 8.49
CD16-VH-RM75 (antibody) EVQLVESGGGLVQPGGSLRLSCAASGFTFSNYGMSWVRQAPGKGLEWIGSIYYSGDTNYNPSLKSLVTISRDNSKNTLYLQMNSLRAEDTATYYCARESIDYWGQGTLVTVSS :: 8.69
CD16-VH-RM80 (antibody) EVQLVESGGGLVQPGGSLRLSCAASGFTFSNYGMSWVRQAPGKGLEWIGSIYYDGSTNYNPSLKSLVTISRDNSKNTLYLQMNSLRAEDTATYYCARESIDYWGQGTLVTVSS :: 8.48

### Prompt Requested read-out: pEC50. Entry: BM156-01 (antibody) EVQLVESGGGLVQPGGSLRLSCAASGFTFSNYGMSWVRQAPGKGLEWIGSIYYSGSTNYNPSLKSLVTISRDNSKNTLYLQMNSLRAEDTATYYCARESIDYWGQGTLVTVSS
### Response 8.34

### Prompt Given CD16-VH-RM73 (antibody) EVQLVESGGGLVQPGGSLRLSCAASGFTFSNYGMSWVRQAPGKGLEWIGSIYYSGTTNYNPSLKSLVTISRDNSKNTLYLQMNSLRAEDTATYYCARESIDYWGQGTLVTVSS , state its recorded pEC50.
### Response 8.38

### Prompt Any idea what its pEC50 is? The binder is CD16-VH-RM77 (antibody) EVQLVESGGGLVQPGGSLRLSCAASGFTFSNYGMSWVRQAPGKGLEWIGSIYYNGSTNYNPSLKSLVTISRDNSKNTLYLQMNSLRAEDTATYYCARESIDYWGQGTLVTVSS
### Response 8.85

### Prompt Given CD16-VH-RM72 (antibody) EVQLVESGGGLVQPGGSLRLSCAASGFTFSNYGMSWVRQAPGKGLEWIGSIYYSGQTNYNPSLKSLVTISRDNSKNTLYLQMNSLRAEDTATYYCARESIDYWGQGTLVTVSS , state its recorded pEC50.
### Response 8.73
